Entries annotated with measured Particle size
assay: particle size and polydispersity index of drug micelles over time (ZetaSizer); type: physicochemical; conditions: docetaxel:compound 1:3, docetaxel 0.5 mg/mL; time 1 h

| Compound | Unit info | Particle size |
| --- | --- | --- |
| COc1cc(C)c(/C=C/C(C)=C/C=C/C(C)=C/C(=O)N2CCN(c3ccc(S(=O)(=O)[O-])cc3)CC2)c(C)c1C.[Na+] [Compound 6] | nm | 61.27 |
| COc1cc(C)c(/C=C/C(C)=C/C=C/C(C)=C/C(=O)N(C)CCS(=O)(=O)[O-])c(C)c1C.[Na+] [Compound 3] | nm | 7.19 |
| COc1cc(C)c(/C=C/C(C)=C/C=C/C(C)=C/C(=O)N2CCC(CCS(=O)(=O)[O-])CC2)c(C)c1C.[Na+] [Compound 8] | nm | 70.34 |
